Value source: patent EP0354323A2

# test_system: purified rat liver FBP (Rattus norvegicus)
# Construct: 0.02U of purified rat liver FBP; from tissue; host or cells: rat liver
# test_method_notes: Inhibition of fructose-1,6-bisphosphatase (FBP), spectrophotometric assay
# Format: biochemical
endpoint: IC50

smiles_notation: O=P(O)(O)OC[C@H]1O[C@H](COP(=O)(O)O)[C@@H](O)[C@@H]1O
test_system: purified rat liver FBP (Rattus norvegicus)
endpoint: IC50
recorded_result: 2 µM

---

# test_system: purified rat liver FBP (Rattus norvegicus, UniProt P19112)
# Construct: 0.02U of purified rat liver FBP; from tissue; host or cells: rat liver
# Sequence (P19112 2-363 limits assumed): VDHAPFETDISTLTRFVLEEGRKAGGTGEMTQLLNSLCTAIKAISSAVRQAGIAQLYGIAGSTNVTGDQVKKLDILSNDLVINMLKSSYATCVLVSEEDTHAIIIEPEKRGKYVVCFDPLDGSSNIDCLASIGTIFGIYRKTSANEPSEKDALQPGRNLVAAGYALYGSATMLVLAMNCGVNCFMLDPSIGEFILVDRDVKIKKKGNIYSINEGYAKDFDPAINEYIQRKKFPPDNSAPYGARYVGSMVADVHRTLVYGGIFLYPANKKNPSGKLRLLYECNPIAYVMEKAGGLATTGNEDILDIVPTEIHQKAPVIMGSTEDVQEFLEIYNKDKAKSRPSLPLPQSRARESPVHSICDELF
# test_method_notes: Inhibition of fructose-1,6-bisphosphatase (FBP), spectrophotometric assay
# Type: biochemical
# condition_parameters: inhibition of enzyme; pH 7.4, 30°C, reaction initiated with 0.02 mM fructose-1,6-bisphosphate; read-out: FBP IC₅₀
pIC50: −log10 of the molar value. Structures can show the parent of a compound that is named as a salt.
endpoint: pIC50

compound: O=P(O)(O)OC[C@H]1O[C@@](CO)(OP(=O)(O)O)[C@@H](O)[C@@H]1O [Beta-D-fructose-2,6-bisphosphate, reference compound]
endpoint: pIC50
sign: =
recorded_result: 5.52
--
compound: O=P(O)(O)OCC[C@@H]1O[C@H](COP(=O)(O)O)[C@@H](O)[C@@H]1O
endpoint: pIC50
sign: =
recorded_result: 3.64
--
compound: O=P(O)(O)OCC[C@H]1O[C@H](COP(=O)(O)O)[C@@H](O)[C@@H]1O
endpoint: pIC50
sign: =
recorded_result: 4.30
--
compound: O=P(O)(O)OC[C@H]1OC(O)(C(F)F)[C@@H](O)[C@@H]1O (some centres unmarked) [phosphate), sodium salt]
endpoint: pIC50
sign: =
recorded_result: 3.35
--
compound: O=P(O)(O)OCC[C@@]1(CO)O[C@H](COP(=O)(O)O)[C@@H](O)[C@@H]1O
endpoint: pIC50
sign: =
recorded_result: 4.00
--
compound: O=P(O)(O)OC[C@@H]1O[C@H](COP(=O)(O)O)[C@@H](O)[C@@H]1O
endpoint: pIC50
sign: =
recorded_result: 4.49
--
compound: O=P(O)(O)OC[C@H]1O[C@](OP(=O)(O)O)(C(F)F)[C@@H](O)[C@@H]1O [disodium salt]
endpoint: pIC50
sign: <
recorded_result: 3.10
--
compound: O=P(O)(O)OC[C@H]1O[C@@](OP(=O)(O)O)(C(F)F)[C@@H](O)[C@@H]1O [disodium salt]
endpoint: pIC50
sign: <
recorded_result: 3.10

---

# test_system: purified rat liver 6-phosphofructo-1-kinase (Rattus norvegicus, UniProt P30835)
# Construct: 0.1U of purified rat liver 6-phosphofructo-1-kinase
# Sequence (P30835 2-780 limits assumed): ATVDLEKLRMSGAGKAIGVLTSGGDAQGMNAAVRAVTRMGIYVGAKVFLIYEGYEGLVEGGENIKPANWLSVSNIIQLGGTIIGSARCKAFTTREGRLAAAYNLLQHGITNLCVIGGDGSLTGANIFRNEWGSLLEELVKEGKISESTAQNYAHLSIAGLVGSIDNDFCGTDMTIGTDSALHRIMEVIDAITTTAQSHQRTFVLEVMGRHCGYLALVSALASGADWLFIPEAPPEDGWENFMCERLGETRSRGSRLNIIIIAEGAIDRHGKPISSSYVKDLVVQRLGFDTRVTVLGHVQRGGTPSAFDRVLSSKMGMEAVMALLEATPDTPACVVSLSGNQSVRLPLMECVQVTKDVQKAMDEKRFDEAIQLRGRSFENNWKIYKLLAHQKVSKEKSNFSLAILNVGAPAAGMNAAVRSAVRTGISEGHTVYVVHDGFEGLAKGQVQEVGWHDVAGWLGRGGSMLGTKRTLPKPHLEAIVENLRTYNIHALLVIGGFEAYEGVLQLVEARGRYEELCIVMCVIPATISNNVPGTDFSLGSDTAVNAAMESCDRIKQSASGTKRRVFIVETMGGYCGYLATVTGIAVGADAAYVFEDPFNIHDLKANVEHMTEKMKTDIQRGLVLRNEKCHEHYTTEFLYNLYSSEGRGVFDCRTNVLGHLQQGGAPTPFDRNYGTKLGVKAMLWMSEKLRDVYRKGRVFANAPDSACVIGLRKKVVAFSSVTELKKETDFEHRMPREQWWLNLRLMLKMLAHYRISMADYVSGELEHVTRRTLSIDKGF
# test_method_notes: Stimulation of 6-phosphofructo-1-kinase (PFK), aldolase-coupled spectrophotometric assay
# condition_parameters: stimulation of enzyme; pH 7.3, 30°C, 1 mM ATP, reaction initiated with 0.2 mM fructose-6-phosphate; read-out: PFK ED₅₀
Where a name gives a salt, the structure may show the parent alone.

compound: O=P(O)(O)OC[C@H]1O[C@H](COP(=O)(O)O)[C@@H](O)[C@@H]1O
EC50 / µM: 0.26
--
compound: O=P(O)(O)OC[C@H]1O[C@@](CO)(OP(=O)(O)O)[C@@H](O)[C@@H]1O [Beta-D-fructose-2,6-bisphosphate, reference compound]
EC50 / µM: 0.02
--
compound: O=P(O)(O)OC[C@H]1OC(O)(C(F)F)[C@@H](O)[C@@H]1O (stereo partly shown) [phosphate), sodium salt]
EC50 / µM: 300
--
compound: O=P(O)(O)OCC[C@@]1(CO)O[C@H](COP(=O)(O)O)[C@@H](O)[C@@H]1O
EC50 / µM: 7.2

---

# test_system: partially purified potato tuber 6-phosphofructo-1-kinase (Solanum tuberosum, UniProt P21342+P21343)
# Construct: 0.1U of partially purified potato tuber
# Sequence (P21343 1-569): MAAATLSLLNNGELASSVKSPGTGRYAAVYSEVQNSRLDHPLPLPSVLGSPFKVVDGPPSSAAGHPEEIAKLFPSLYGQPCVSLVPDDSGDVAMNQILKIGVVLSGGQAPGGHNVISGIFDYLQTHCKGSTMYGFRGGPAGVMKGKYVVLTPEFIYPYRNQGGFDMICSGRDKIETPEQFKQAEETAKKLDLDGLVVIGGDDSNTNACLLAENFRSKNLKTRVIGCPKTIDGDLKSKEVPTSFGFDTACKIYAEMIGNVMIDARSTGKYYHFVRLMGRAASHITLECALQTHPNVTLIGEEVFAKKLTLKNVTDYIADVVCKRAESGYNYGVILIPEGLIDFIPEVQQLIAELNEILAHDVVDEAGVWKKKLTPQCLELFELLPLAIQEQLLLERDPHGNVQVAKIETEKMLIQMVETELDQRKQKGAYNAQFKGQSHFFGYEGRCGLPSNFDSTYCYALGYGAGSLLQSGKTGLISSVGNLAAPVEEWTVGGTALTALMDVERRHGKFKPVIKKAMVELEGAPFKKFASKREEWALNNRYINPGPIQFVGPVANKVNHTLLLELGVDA
# Sequence (P21342 1-616): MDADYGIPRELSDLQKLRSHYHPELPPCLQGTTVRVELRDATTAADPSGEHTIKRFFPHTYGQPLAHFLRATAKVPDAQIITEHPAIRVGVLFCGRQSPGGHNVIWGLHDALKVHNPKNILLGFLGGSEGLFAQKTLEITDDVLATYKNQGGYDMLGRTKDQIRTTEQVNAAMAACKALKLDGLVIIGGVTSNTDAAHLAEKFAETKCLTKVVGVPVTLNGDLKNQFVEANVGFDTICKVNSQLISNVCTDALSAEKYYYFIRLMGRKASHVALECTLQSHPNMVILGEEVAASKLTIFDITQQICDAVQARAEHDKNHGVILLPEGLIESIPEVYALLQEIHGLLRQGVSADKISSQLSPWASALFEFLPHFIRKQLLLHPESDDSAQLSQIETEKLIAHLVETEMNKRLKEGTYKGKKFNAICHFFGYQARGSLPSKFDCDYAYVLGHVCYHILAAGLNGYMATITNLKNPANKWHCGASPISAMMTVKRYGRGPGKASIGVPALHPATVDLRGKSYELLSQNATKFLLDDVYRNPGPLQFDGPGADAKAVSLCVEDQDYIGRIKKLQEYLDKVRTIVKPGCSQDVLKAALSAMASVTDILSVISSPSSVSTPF
# test_method_notes: Stimulation of pyrophosphate-dependent 6-phosphofructo-1-kinase (PPi-PFK), aldolase-coupled spectrophotometric assay
# condition_parameters: stimulation of enzyme; pH 8.0, 30°C, 1 mM fructose-6-phosphate, reaction initiated with 0.5 mM sodium pyrophosphate; read-out: PPi-PFK ED₅₀
pEC50: −log10 of the molar value. Structures can show the parent of a compound that is named as a salt.

compound: O=P(O)(O)OC[C@H]1OC(O)(C(F)F)[C@@H](O)[C@@H]1O (stereo partly drawn) [phosphate), sodium salt]
pEC50: 3.00
//
compound: O=P(O)(O)OC[C@H]1O[C@@](OP(=O)(O)O)(C(F)F)[C@@H](O)[C@@H]1O
pEC50: 4.82
//
compound: O=P(O)(O)OC[C@H]1O[C@](CO)(COP(=O)(O)O)[C@@H](O)[C@@H]1O
pEC50: 5.18
//
compound: O=P(O)(O)OC[C@H]1O[C@@](CO)(OP(=O)(O)O)[C@@H](O)[C@@H]1O [Beta-D-fructose-2,6-bisphosphate, reference compound]
pEC50: 8.40
//
compound: O=P(O)(O)OC[C@H]1O[C@](OP(=O)(O)O)(C(F)F)[C@@H](O)[C@@H]1O
pEC50: 6.52
//
compound: O=P(O)(O)OC[C@H]1O[C@@](CO)(COP(=O)(O)O)[C@@H](O)[C@@H]1O
pEC50: 6.40

---

# Lookup of reported pEC50 keyed by entry
# test_system: purified rat liver 6-phosphofructo-1-kinase (Rattus norvegicus, UniProt P30835)
# Construct: 0.1U of purified rat liver 6-phosphofructo-1-kinase
# test_method_notes: Stimulation of 6-phosphofructo-1-kinase (PFK), aldolase-coupled spectrophotometric assay
# condition_parameters: stimulation of enzyme; pH 7.3, 30°C, 1 mM ATP, reaction initiated with 0.2 mM fructose-6-phosphate; read-out: PFK ED₅₀
pEC50: −log10 of the molar value. Where a name gives a salt, the structure may show the parent alone.

compound: O=P(O)(O)OCC[C@@H]1O[C@H](COP(=O)(O)O)[C@@H](O)[C@@H]1O
pEC50: 5.40

compound: O=P(O)(O)OC[C@H]1O[C@@](OP(=O)(O)O)(C(F)F)[C@@H](O)[C@@H]1O [disodium salt]
pEC50: 7.30

compound: O=P(O)(O)OC[C@H]1O[C@](OP(=O)(O)O)(C(F)F)[C@@H](O)[C@@H]1O [disodium salt]
pEC50: 6.82

compound: O=P(O)(O)OC[C@H]1O[C@@](CO)(COP(=O)(O)O)[C@@H](O)[C@@H]1O
pEC50: 5.20

compound: O=P(O)(O)OC[C@@H](O)[C@H]1O[C@H](COP(=O)(O)O)[C@@H](O)[C@@H]1O
pEC50: 5.68

compound: O=P(O)(O)OC[C@@H]1O[C@H](COP(=O)(O)O)[C@@H](O)[C@@H]1O
pEC50: 5.66

compound: O=P(O)(O)OC[C@H]1O[C@](CO)(COP(=O)(O)O)[C@@H](O)[C@@H]1O
pEC50: 5.70

compound: O=P(O)(O)OCC[C@H]1O[C@H](COP(=O)(O)O)[C@@H](O)[C@@H]1O
pEC50: 6.25

compound: O=P(O)(O)OCCCC1O[C@H](COP(=O)(O)O)[C@@H](O)[C@@H]1O (stereo partly drawn)
pEC50: 4.92
